Tested on: KB-3-1 cervix cancer cells
Experiment: Colony forming assay, effect of EGF on cisplatin sensitivity
Type: cell-based, human
Conditions: read-out: IC50 in absence of EGF; cisplatin 1 h, no EGF

>  <MOLECULE>
N.N.[Cl][Pt][Cl] [cisplatin]

>  <MEASUREMENT_TARGET>
KB-3-1 cervix cancer cells

>  <UNIT_NAME>
µM

>  <IC50>
9.71

$$$$

====

Test system: MIA PaCa-2 pancreatic cancer cells
Experiment: Colony forming assay, effect of EGF on cisplatin sensitivity
Format: cell-based, human
Conditions: read-out: IC50 in presence of EGF; 10 nM EGF and cisplatin concurrently for 1 h

>  <COMPOUND>
N.N.[Cl][Pt][Cl] [cisplatin]

>  <MEASUREMENT_TARGET>
MIA PaCa-2 pancreatic cancer cells

>  <IC50 [µM]>
5.53

$$$$
